Origin of measurements: paper PMC5259782

# SYSTEM_UNDER_TEST: SyPEPC (Synechocystis sp. PCC 6803, UniProt P74299)
# Construct: gene ppc
# Sequence (P74299 whole entry): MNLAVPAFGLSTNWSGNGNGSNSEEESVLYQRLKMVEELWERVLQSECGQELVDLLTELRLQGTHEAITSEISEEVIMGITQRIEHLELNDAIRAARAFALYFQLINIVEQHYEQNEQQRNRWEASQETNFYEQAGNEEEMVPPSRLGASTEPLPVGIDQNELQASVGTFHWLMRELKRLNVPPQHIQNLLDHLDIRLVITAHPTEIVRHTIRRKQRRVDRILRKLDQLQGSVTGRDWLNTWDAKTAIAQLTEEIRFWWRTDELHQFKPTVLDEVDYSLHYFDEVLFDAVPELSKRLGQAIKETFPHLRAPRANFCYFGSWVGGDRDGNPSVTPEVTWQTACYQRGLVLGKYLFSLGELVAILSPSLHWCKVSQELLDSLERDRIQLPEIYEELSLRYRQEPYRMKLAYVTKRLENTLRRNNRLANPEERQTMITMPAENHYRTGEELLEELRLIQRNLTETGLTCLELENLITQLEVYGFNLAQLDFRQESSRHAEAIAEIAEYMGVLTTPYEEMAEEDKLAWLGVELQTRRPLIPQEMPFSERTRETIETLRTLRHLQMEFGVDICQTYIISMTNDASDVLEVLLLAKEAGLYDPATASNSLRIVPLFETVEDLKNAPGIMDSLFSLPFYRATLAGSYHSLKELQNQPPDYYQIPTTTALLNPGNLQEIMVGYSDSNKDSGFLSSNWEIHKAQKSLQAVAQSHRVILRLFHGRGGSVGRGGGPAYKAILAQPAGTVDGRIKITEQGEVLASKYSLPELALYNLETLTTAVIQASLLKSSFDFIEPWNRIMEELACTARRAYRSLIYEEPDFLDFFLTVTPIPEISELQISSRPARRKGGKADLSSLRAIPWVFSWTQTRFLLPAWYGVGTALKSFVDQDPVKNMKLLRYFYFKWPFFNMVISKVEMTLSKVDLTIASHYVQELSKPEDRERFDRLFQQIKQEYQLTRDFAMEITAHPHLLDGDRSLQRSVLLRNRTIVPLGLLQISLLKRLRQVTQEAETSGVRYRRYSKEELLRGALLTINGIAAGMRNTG
# ASSAY_NAME: malate dehydrogenase-coupled NADH assay, residual activity
# Type: biochemical
# CONDITION: read-out: SyPEPC activity (in vitro)
METRIC_NAME: activity at 1000 µM (%)

• O=C(O)CCC(=O)O [succinate] = 124
• N[C@@H](CC(=O)O)C(=O)O [aspartate] = 85.2
• O=C(O)/C=C/C(=O)O [fumarate] = 75
• O=C(O)C[C@H](O)C(=O)O [malate] = 77.1
